# Tested on: OVCAR-3 ovarian
# method.notes: NCI-60 one-dose screen, 48 h
# measurement.conditions: 10 µM unless noted
The panel holds about 83,000 compounds, 20% with a hit somewhere; the sample as a whole holds those more often. Activity calls are given as the source filed them. The calls were made as follows: active = growth percent below 10; inactive = the rest.
Classes used: class 1 for active, class 0 for inactive

molecule	experimental.target	class.assignment
COc1ccc2[nH]cc(C(c3cc(F)cc(F)c3)c3c[nH]c4ccc(OC)cc34)c2c1	OVCAR-3 ovarian	class 0
CCCCNc1ccc(C#N)c(OCCN(CC)CC)c1	OVCAR-3 ovarian	class 0
CCN(CC)CCOc1ccc(-c2c(-c3ccccc3)c(=O)oc3ccccc23)cc1	OVCAR-3 ovarian	class 0
O=[N+]([O-])C1C(c2ccccc2)C12c1ccccc1-c1ccccc12 (stereo not given)	OVCAR-3 ovarian	class 1
CCO/C=N/C1=C(C#N)C(c2ccc(OC)cc2)c2sc3c(F)cccc3c2O1 (stereo not given)	OVCAR-3 ovarian	class 1
Cc1noc(C)c1C(=O)OCc1coc2ccccc2c1=O	OVCAR-3 ovarian	class 0
C=C(CNCCc1ccc(O)cc1)[C@@H]1CC[C@]2(CO)CC[C@]3(C)[C@H](CC[C@@H]4[C@@]5(C)CCC(NCCO)C(C)(C)[C@@H]5CC[C@]43C)[C@@H]12 (stereo not given in full)	OVCAR-3 ovarian	class 1
C=C1C(=O)O[C@H]2[C@H]1CC/C(COC(=O)N[C@H]1C[C@H](O[C@H]3C[C@](O)(C(=O)CO)Cc4c(O)c5c(c(O)c43)C(=O)c3c(OC)cccc3C5=O)O[C@@H](C)[C@H]1O)=C\CC[C@@]1(C)O[C@@H]21	OVCAR-3 ovarian	class 1
COC(=O)c1cc(-c2ccc(OC)cc2)[nH]c1N/N=C/c1c(Cl)cccc1Cl	OVCAR-3 ovarian	class 1
Cc1cccnc1NC(=S)Nc1ncccc1C	OVCAR-3 ovarian	class 0
C#Cc1cccc(Nc2ncnc3ccc(-c4cnc(N)nc4)cc23)c1	OVCAR-3 ovarian	class 0
CC(C)c1ccc(NC(=O)Nc2ccc(NC(=O)CCCC(=O)NOCc3ccccc3)cc2)cc1	OVCAR-3 ovarian	class 0
O=C(CCC(=O)N/N=C/c1ccccc1O)N/N=C/c1ccccc1O	OVCAR-3 ovarian	class 0
O=C(c1ccccc1)C1C(=O)N2C(=S)N(c3ccccc3)C(=O)C2C1c1ccc(Cl)cc1 (stereo not given)	OVCAR-3 ovarian	class 0
O=C(Nc1ccc(NC(=O)c2cc(=O)[nH]c3ccccc23)cc1)Nc1cccc(C(F)(F)F)c1	OVCAR-3 ovarian	class 0
N#CC1C=CN(CC(N)=O)c2ccc3cccnc3c21 (stereo not given)	OVCAR-3 ovarian	class 0
COc1ccc(-c2nnc(-c3ccc4c(c3)nc(-c3ccncc3)n4C3CCCCC3)o2)cc1	OVCAR-3 ovarian	class 0
CCCCC[C@@H]1Cc2cc(O)c(C(=O)O)c3c2[C@H](C[C@]2(OC[C@@H](CC(=O)[C@@](C)(CC)C(=O)OC)[C@@H]2C)O3)O1	OVCAR-3 ovarian	class 0
C/C(=N\NC(=O)c1ccccc1O)c1cccc(/C(C)=N/NC(=O)c2ccccc2O)n1	OVCAR-3 ovarian	class 1
CCN(CC)c1nc(SCc2ccccc2Cl)ncc1C	OVCAR-3 ovarian	class 0
COc1cccc(NC(=O)Cn2cc(CN3CCN(c4ccnc5cc(Cl)ccc45)CC3)nn2)c1	OVCAR-3 ovarian	class 0
CC(C)n1cnc2c(=S)nc[nH]c21	OVCAR-3 ovarian	class 0
COc1ccc(-c2nc(/C=C3\SC(=NCc4ccccc4)NC3=O)c3ccccn23)cc1	OVCAR-3 ovarian	class 1
O=C1/C(=C/c2cccs2)SC(=S)N1CCCN1CCOCC1	OVCAR-3 ovarian	class 0
COc1ccc(N2CCC(=O)NC2=S)cc1	OVCAR-3 ovarian	class 0
Cc1ccc(-n2c(=S)[nH]c3sc4c(c3c2=O)CCC(=O)C4)cc1	OVCAR-3 ovarian	class 1
Cn1cccc1C(=O)C1C(c2cccc([N+](=O)[O-])c2)C2C3CCCCC3CN2C12C(=O)Nc1ccc(Cl)cc12 (stereo not given)	OVCAR-3 ovarian	class 0
O=C1NC(=O)c2c1c1c3ccccc3ccc1c1[nH]c3ccc(Br)cc3c21	OVCAR-3 ovarian	class 1
O=C(CSc1nc2ccc([N+](=O)[O-])cc2[nH]1)Nc1ccc(F)cc1	OVCAR-3 ovarian	class 0
O=C1Nc2ccc(I)cc2C1=O	OVCAR-3 ovarian	class 0
CCc1n(Cc2ccc3ccccc3c2)cc[n+]1Cc1ccc2ccccc2c1	OVCAR-3 ovarian	class 1
COc1cc(C(=O)n2nc(N3CCN(C)CC3)c3cc(N)ccc32)cc(OC)c1OC	OVCAR-3 ovarian	class 1
COP(=O)(OC)C(C)(C)CC(=O)CC(C#N)(C#N)C(C#N)C#N	OVCAR-3 ovarian	class 0
CCN1C(=O)N(CC)C2C1NN=c1s/c(=C\c3cccc([N+](=O)[O-])c3)c(=O)n12 (stereo not given)	OVCAR-3 ovarian	class 1
CCCCCCCCCCCCCCCCCCOc1ccccc1CC(=O)OCC[N+]1(C)CCCC1	OVCAR-3 ovarian	class 0
N#C/C(=C/c1ccc([N+](=O)[O-])cc1)n1nnc2cc(F)c(F)cc21	OVCAR-3 ovarian	class 0
Cc1ccccc1/C=C1\CN(C(=O)OC(C)(C)C)C/C(=C\c2ccccc2C)C1=O	OVCAR-3 ovarian	class 1
COc1ccc2[nH]cc(-c3nc(-c4cn(C)c5c(Cl)nccc45)cs3)c2c1	OVCAR-3 ovarian	class 0
O=C(O)[C@@H]1c2ccccc2-c2ccccc2[C@H]1C(=O)O	OVCAR-3 ovarian	class 0
CCCCCCCCCCCCCCCC(N)c1ccccc1 (stereo not given)	OVCAR-3 ovarian	class 1
